- target-system: T1, Cynomolgus monkey latent myostatin (cynomolgus monkey, UniProt Q95J86 25-266; Q95J86 267-375)
- T1 construct: Latent form = complex of two propeptides and the mature dimer; also called Cyno latent myostatin
- T1 sequence 1: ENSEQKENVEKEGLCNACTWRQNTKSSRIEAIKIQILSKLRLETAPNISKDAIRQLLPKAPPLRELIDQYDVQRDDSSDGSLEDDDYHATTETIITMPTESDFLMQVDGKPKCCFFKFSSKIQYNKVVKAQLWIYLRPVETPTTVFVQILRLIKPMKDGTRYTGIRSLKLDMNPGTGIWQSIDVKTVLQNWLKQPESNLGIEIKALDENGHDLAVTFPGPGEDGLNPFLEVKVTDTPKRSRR
- T1 sequence 2: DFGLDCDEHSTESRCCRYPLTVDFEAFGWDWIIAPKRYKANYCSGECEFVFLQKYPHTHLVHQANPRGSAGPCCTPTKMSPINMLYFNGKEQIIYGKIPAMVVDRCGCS
- measurement-protocol: SPR 37C; KD pH 5.8 / KD pH 7.4
Threshold check on ratio of KD at pH 5.8/pH 7.4: at or above 90 gives class 1, strictly below gives class 0.

**Query** Has MS_M103205H1047-SG1/M103202L889-SK1 (antibody, human IgG1, kappa, V domains shown, also called MS1032LO11-SG1) VH: QVTLKESGPVLVKPTETLTLTCTVSGIDLSHTDISWVRQAPGKGLEWVGIISYAGKKYYASWAKGRLTISKDTSKNQVVLTMTNMDPVDTATYYCARGVPAYSHGGDLWGQGTLVTVSS VL: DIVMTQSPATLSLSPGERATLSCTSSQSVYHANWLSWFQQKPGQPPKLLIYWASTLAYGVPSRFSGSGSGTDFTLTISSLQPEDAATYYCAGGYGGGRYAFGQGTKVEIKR a recorded ratio of KD at pH 5.8/pH 7.4 greater than or equal to 90?
**Result** class 0

**Query** Has MS_M103205H1046-SG1/M103202L889-SK1 (antibody, human IgG1, kappa, V domains shown, also called MS1032LO10-SG1) VH: QVTLKESGPVLVKPTETLTLTCTVSGIDLSHTDISWVRQAPGKGLEWVGIISYAGKTYYASWAKKRLTISKDTSKNQVVLTMTNMDPVDTATYYCARGVPAYSHGGDLWGQGTLVTVSS VL: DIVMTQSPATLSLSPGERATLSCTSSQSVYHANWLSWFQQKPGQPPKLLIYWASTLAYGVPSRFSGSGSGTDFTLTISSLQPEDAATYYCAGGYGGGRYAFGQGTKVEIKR a recorded ratio of KD at pH 5.8/pH 7.4 greater than or equal to 90?
**Result** class 0

**Query** Has MS_M103245H1233-SG1/M103202L1045-SK1 (antibody, human IgG1, kappa, V domains shown, also called MS1032LO23-SG1) VH: QVTLKESGPVLVKPTETLTLTCKVSGIDLSHEDISWVRQAPGKGLEWVSIISYAGSTYYASWAKGRLTISKDTSKNQVVLTMTNMDPVDTATYYCARGVPAYSHGGDLWGQGTLVTVSS VL: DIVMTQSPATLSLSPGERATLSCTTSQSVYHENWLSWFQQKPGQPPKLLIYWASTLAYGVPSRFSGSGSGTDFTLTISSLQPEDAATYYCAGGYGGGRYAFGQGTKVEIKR a recorded ratio of KD at pH 5.8/pH 7.4 greater than or equal to 90?
**Result** class 0

**Query** Has MS_M103205H1057-SG1/M103202L889-SK1 (antibody, human IgG1, kappa, V domains shown, also called MS1032LO12-SG1) VH: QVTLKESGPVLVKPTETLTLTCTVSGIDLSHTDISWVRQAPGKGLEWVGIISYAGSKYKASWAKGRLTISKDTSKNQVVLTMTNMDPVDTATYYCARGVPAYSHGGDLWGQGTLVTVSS VL: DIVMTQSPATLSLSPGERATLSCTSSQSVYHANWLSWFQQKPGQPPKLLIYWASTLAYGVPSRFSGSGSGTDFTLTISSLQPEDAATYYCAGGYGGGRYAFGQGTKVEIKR a recorded ratio of KD at pH 5.8/pH 7.4 greater than or equal to 90?
**Result** class 0

**Query** Has MS_M103205H1186-SG1/M103202L889-SK1 (antibody, human IgG1, kappa, V domains shown, also called MS1032LO18-SG1) VH: QVTLKESGPVLVKPTETLTLTCTVSGIDLSHDDISWVRQAPGKGLEWVGIISYAGKKYYASWAKGRLTISKDTSKNQVVLTMTNMDPVDTATYYCARGVPAYSHGGDLWGQGTLVTVSS VL: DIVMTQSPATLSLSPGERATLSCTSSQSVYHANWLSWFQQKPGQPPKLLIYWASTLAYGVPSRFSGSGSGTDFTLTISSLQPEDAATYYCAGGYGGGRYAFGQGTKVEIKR a recorded ratio of KD at pH 5.8/pH 7.4 greater than or equal to 90?
**Result** class 1

Reference for the values: patent US20200317768A1
